test: Microsomal stability in Sprague-Dawley rat liver microsome incubated for 1 hr by HPLC analysis; assay type: ADME; settings: liver microsomes, read-out: Stability
MEASUREMENT NAME: remaining at 1 h (%)

LINE NOTATION	VALUE OBSERVED
Cc1cccc(-c2ccc(-c3cc4cnc(NC(CO)CO)nc4n(CCCCN)c3=O)c(Cl)c2)n1	90

* * *

target: Serine/threonine-protein kinase 24 (Homo sapiens); assay: Inhibition of MST3 (unknown origin) expressed in intact HEK293T cells using NanoGlo as substrate incubated for 20 hrs by NanoBRET assay; format: cell-based
Sequence (Q9Y6E0 whole entry): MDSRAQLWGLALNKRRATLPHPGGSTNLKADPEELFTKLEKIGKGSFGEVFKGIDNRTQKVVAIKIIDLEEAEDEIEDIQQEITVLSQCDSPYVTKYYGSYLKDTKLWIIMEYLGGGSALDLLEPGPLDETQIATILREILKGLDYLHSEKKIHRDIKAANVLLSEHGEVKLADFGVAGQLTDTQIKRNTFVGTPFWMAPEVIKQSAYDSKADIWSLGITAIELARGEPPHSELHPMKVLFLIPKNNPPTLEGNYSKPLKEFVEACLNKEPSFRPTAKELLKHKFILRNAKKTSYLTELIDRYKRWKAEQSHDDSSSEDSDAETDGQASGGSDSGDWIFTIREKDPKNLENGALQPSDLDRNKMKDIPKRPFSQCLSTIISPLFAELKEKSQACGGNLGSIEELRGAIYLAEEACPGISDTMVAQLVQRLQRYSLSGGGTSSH
pEC50: −log10 of the molar value.
Lab note: compare pEC50 against 7. Equal or greater, write 1. Smaller, write -1.

LINE NOTATION	LABEL
Cc1cccc(-c2ccc(-c3cc4cnc(NCCCN5CCCC5=O)nc4n(CCCCN)c3=O)c(Cl)c2)n1	-1
Cc1cccc(-c2ccc(-c3cc4cnc(NCCCN5CCOCC5)nc4n(CCCCN)c3=O)c(Cl)c2)n1	1
CNc1ncc2cc(-c3ccc(-c4cccc(C)n4)cc3Cl)c(=O)n(CCCCN)c2n1	-1
Cc1cccc(-c2ccc(-c3cc4cnc(Nc5ccc(CCCO)cc5)nc4n(CCCCN)c3=O)c(Cl)c2)n1	1
Cc1cccc(-c2ccc(-c3cc4cnc(NC(CO)CO)nc4n(CCCCN)c3=O)c(Cl)c2)n1	1
